Where do these numbers come from? They come from patent US20050282755A1.

Test system: Pseudomonas aeruginosa ATCC 27853
method: MIC, NCCLS M7-A6 broth microdilution (Table 9, no superscript)
Type: cell-based
experimental context: ATCC 27853
Non-standard residues stand in square brackets, D forms with d. Residues, ends and D or L forms follow the SMILES beside them. *: point of attachment. Decanoyl = CCCCCCCCCC(=O)*
reported endpoint: MIC P. aeruginosa

* CCCCCCCCCC(=O)N[C@H](CCCNC(=N)N)C(=O)N[C@H](CO)C(=O)N[C@H](CCCNC(=N)N)C(=O)N[C@H](Cc1c[nH]c2ccccc12)C(=O)N[C@H](CCCNC(=N)N)C(=O)N[C@H](CC(=O)O)C(=O)N[C@@H](C(=O)N[C@H](C)C(=O)N[C@H](CCCNC(=N)N)C(=O)N[C@H](CC(N)=O)C(=O)N[C@H](Cc1ccccc1)C(=O)N[C@H](CCSC)C(=O)N[C@H](CCCNC(=N)N)C(N)=O)C(C)C [Peptide 208, Decanyl-rsrwrdvarnfmr-NH2] (Decanoyl-[dR][dS][dR][dW][dR][dD][dV][dA][dR][dN][dF][dM][dR]-NH2) | >64 µg/mL

====

The entries below are paired with their reported MIC P. aeruginosa.
System: Pseudomonas aeruginosa ATCC 27853
method: MIC, NCCLS M7-A6 broth microdilution (Table 9, no superscript)
Format: cell-based
experimental context: ATCC 27853
Non-standard residues stand in square brackets, D forms with d. Residues, ends and D or L forms follow the SMILES beside them. *: point of attachment. Lauroyl = CCCCCCCCCCCC(=O)*; Hexanoyl = CCCCCC(=O)*
reported endpoint: MIC P. aeruginosa (µg/mL)

- CCCCCC(=O)NCCCC[C@H](NC(=O)[C@H](CCCNC(=N)N)NC(=O)[C@H](CC(C)C)NC(=O)[C@H](Cc1ccccc1)NC(=O)[C@H](CC(N)=O)NC(=O)[C@H](CCCNC(=N)N)NC(=O)[C@H](C)NC(=O)[C@@H](NC(=O)[C@H](CC(=O)O)NC(=O)[C@H](CCCNC(=N)N)NC(=O)[C@H](Cc1c[nH]c2ccccc12)NC(=O)[C@H](CCCNC(=N)N)NC(=O)[C@H](CO)NC(=O)[C@@H](N)CCCNC(=N)N)C(C)C)C(N)=O [Peptide 178, H2N-RSRWRDVARNFLRK(Hexanyl)-NH2] (H-RSRWRDVARNFLRK(Hexanoyl)-NH2): 16
- CCCCCCCCCCCC(=O)N[C@H](CCCNC(=N)N)C(=O)N[C@H](CO)C(=O)N[C@H](CCCNC(=N)N)C(=O)N[C@H](Cc1c[nH]c2ccccc12)C(=O)N[C@H](CCCNC(=N)N)C(=O)N[C@H](CC(=O)O)C(=O)N[C@@H](C(=O)N[C@H](C)C(=O)N[C@H](CCCNC(=N)N)C(=O)N[C@H](CC(N)=O)C(=O)N[C@H](Cc1ccccc1)C(=O)N[C@H](CO)C(=O)N[C@H](CCCNC(=N)N)C(N)=O)C(C)C [Peptide 235, Lauryl-rsrwrdvarnfsr-NH2] (Lauroyl-[dR][dS][dR][dW][dR][dD][dV][dA][dR][dN][dF][dS][dR]-NH2): 64

====

Tested on: Propionibacterium acnes ATCC 6919
method: MIC, agar dilution method NCCLS M11-A6, Brucella agar, anaerobic (Table 9, superscript c)
Type: cell-based
experimental context: ATCC 6919
Non-standard residues stand in square brackets, D forms with d. Residues, ends and D or L forms follow the SMILES beside them. *: point of attachment. Lauroyl = CCCCCCCCCCCC(=O)*
# reported MIC P. acnes; entries follow
reported endpoint: MIC P. acnes (c ug/mL)

* CCCCCCCCCCCC(=O)N[C@@H](CCCNC(=N)N)C(=O)N[C@@H](CO)C(=O)N[C@@H](CCCNC(=N)N)C(=O)N[C@@H](Cc1c[nH]c2ccccc12)C(=O)N[C@@H](CCCNC(=N)N)C(=O)N[C@@H](CC(=O)O)C(=O)N[C@H](C(=O)N[C@@H](C)C(=O)N[C@@H](CCCNC(=N)N)C(=O)N[C@@H](CC(N)=O)C(=O)N[C@@H](Cc1ccccc1)C(=O)N[C@@H](C)C(=O)N[C@@H](CCCNC(=N)N)C(N)=O)C(C)C [Peptide 97, Lauryl-RSRWRDVARNFAR-NH2] (Lauroyl-RSRWRDVARNFAR-NH2) | 64
* CCCCCCCCCCCC(=O)N[C@@H](CCCNC(=N)N)C(=O)N[C@@H](CO)C(=O)N[C@@H](CCCNC(=N)N)C(=O)N[C@@H](Cc1c[nH]c2ccccc12)C(=O)N[C@@H](CCCNC(=N)N)C(=O)N[C@@H](CC(=O)O)C(=O)N[C@@H](Cc1c[nH]c2ccccc12)C(=O)N[C@@H](C)C(=O)N[C@@H](CCCNC(=N)N)C(=O)N[C@@H](CC(N)=O)C(=O)N[C@@H](Cc1c[nH]c2ccccc12)C(=O)N[C@@H](CCSC)C(=O)N[C@@H](CCCNC(=N)N)C(N)=O [Peptide 143, Lauryl-RSRWRDWARNWMR-NH2] (Lauroyl-RSRWRDWARNWMR-NH2) | 2
* CCCCCCCCCCCC(=O)N[C@H](CCCNC(=N)N)C(=O)N[C@H](CO)C(=O)N[C@H](CCCNC(=N)N)C(=O)N[C@H](Cc1c[nH]c2ccccc12)C(=O)N[C@H](CCCNC(=N)N)C(=O)N[C@H](CC(=O)O)C(=O)N[C@@H](C(=O)N[C@H](C)C(=O)N[C@H](CCCNC(=N)N)C(=O)N[C@H](CC(N)=O)C(=O)N[C@H](Cc1ccccc1)C(N)=O)C(C)C [Peptide 116, Lauryl-rsrwrdvarnf-NH2] (Lauroyl-[dR][dS][dR][dW][dR][dD][dV][dA][dR][dN][dF]-NH2) | 8

====

Form field: MIC P. aeruginosa (one value per entry).
Test system: Pseudomonas aeruginosa ATCC 27853
method: MIC, NCCLS M7-A6 broth microdilution (Table 9, no superscript)
Type: cell-based
experimental context: ATCC 27853
Non-standard residues stand in square brackets, D forms with d. Residues, ends and D or L forms follow the SMILES beside them. *: point of attachment. 1Nal = N[C@@H](Cc1cccc2ccccc12)C(=O)O; Lauroyl = CCCCCCCCCCCC(=O)*; Hexanoyl = CCCCCC(=O)*
reported endpoint: MIC P. aeruginosa

* CCCCCCCCCCCC(=O)N[C@H](CCCNC(=N)N)C(=O)N[C@H](CO)C(=O)N[C@H](CCCNC(=N)N)C(=O)N[C@H](Cc1c[nH]c2ccccc12)C(=O)N[C@H](CCCNC(=N)N)C(=O)N[C@H](CC(=O)O)C(=O)N[C@H](CO)C(=O)N[C@H](C)C(=O)N[C@H](CCCNC(=N)N)C(=O)N[C@H](CC(N)=O)C(=O)N[C@H](Cc1ccccc1)C(=O)N[C@H](CCSC)C(=O)N[C@H](CCCNC(=N)N)C(N)=O [Peptide 233, Lauryl-rsrwrdsarnfmr-NH2] (Lauroyl-[dR][dS][dR][dW][dR][dD][dS][dA][dR][dN][dF][dM][dR]-NH2) | 64 mg/L
* CCCCCC(=O)N[C@H](CCCNC(=N)N)C(=O)N[C@H](CO)C(=O)N[C@H](CCCNC(=N)N)C(=O)N[C@H](Cc1c[nH]c2ccccc12)C(=O)N[C@H](CCCNC(=N)N)C(=O)N[C@H](CC(=O)O)C(=O)N[C@@H](C(=O)N[C@H](C)C(=O)N[C@H](CCCNC(=N)N)C(=O)N[C@H](CC(N)=O)C(=O)N[C@H](Cc1ccccc1)C(=O)N[C@H](CCSC)C(=O)N[C@H](CCCNC(=N)N)C(N)=O)C(C)C [Peptide 206, Hexyl-rsrwrdvarnfmr-NH2] (Hexanoyl-[dR][dS][dR][dW][dR][dD][dV][dA][dR][dN][dF][dM][dR]-NH2) | >64 mg/L
* CCCCCCCCCCCC(=O)N[C@@H](CCCNC(=N)N)C(=O)N[C@@H](CO)C(=O)N[C@@H](CCCNC(=N)N)C(=O)N[C@@H](Cc1c[nH]c2ccccc12)C(=O)N[C@@H](CCCNC(=N)N)C(=O)N[C@@H](CC(=O)O)C(=O)N[C@@H](Cc1cccc2ccccc12)C(=O)N[C@@H](C)C(=O)N[C@@H](CCCNC(=N)N)C(=O)N[C@@H](CC(N)=O)C(=O)N[C@@H](Cc1ccccc1)C(=O)N[C@@H](CCSC)C(=O)N[C@@H](CCCNC(=N)N)C(N)=O [Peptide 150] (Lauroyl-RSRWRD[1Nal]ARNFMR-NH2) | >64 mg/L
* CCCCCCCCCCCC(=O)N[C@H](CCCNC(=N)N)C(=O)N[C@H](CO)C(=O)N[C@H](CCCNC(=N)N)C(=O)N[C@H](CC(C)C)C(=O)N[C@H](CCCNC(=N)N)C(=O)N[C@H](CC(=O)O)C(=O)N[C@H](CC(C)C)C(=O)N[C@H](CC(C)C)C(=O)N[C@H](CCCNC(=N)N)C(=O)N[C@H](CC(N)=O)C(=O)N[C@H](CC(C)C)C(=O)N[C@H](C)C(=O)N[C@H](CCCNC(=N)N)C(N)=O [Peptide 132, Lauryl-rsrlrdllrnlar-NH2] (Lauroyl-[dR][dS][dR][dL][dR][dD][dL][dL][dR][dN][dL][dA][dR]-NH2) | 32 mg/L
* CCCCCCCCCCCC(=O)N[C@H](CCCNC(=N)N)C(=O)N[C@H](CO)C(=O)N[C@H](CCCNC(=N)N)C(=O)N[C@H](Cc1c[nH]c2ccccc12)C(=O)N[C@H](CCCNC(=N)N)C(=O)N[C@H](CC(=O)O)C(=O)N[C@@H](C(=O)N[C@H](C)C(=O)N[C@H](CCCNC(=N)N)C(=O)N[C@H](CC(N)=O)C(=O)N[C@H](Cc1ccccc1)C(=O)N[C@H](CC(C)C)C(=O)N[C@H](CCCNC(=N)N)C(N)=O)C(C)C [Peptide 210, Lauryl-rsrwrdvarnflr-NH2] (Lauroyl-[dR][dS][dR][dW][dR][dD][dV][dA][dR][dN][dF][dL][dR]-NH2) | 16 mg/L
* CCCCCCCCCCCC(=O)N[C@H](CO)C(=O)N[C@H](CCCNC(=N)N)C(=O)N[C@H](Cc1c[nH]c2ccccc12)C(=O)N[C@H](CCCNC(=N)N)C(=O)N[C@H](CC(=O)O)C(=O)N[C@@H](C(=O)N[C@H](C)C(=O)N[C@H](CCCNC(=N)N)C(=O)N[C@H](CC(N)=O)C(=O)N[C@H](Cc1ccccc1)C(=O)N[C@H](CC(C)C)C(=O)N[C@H](CCCNC(=N)N)C(N)=O)C(C)C [Peptide 212, Lauryl-srwrdvarnflr-NH2] (Lauroyl-[dS][dR][dW][dR][dD][dV][dA][dR][dN][dF][dL][dR]-NH2) | 64 mg/L
